These measurements were taken from paper PMC10269604.

Target or test system: AaeR (SSON_3385)
Condition details: AaeR labelled with L014 Monolith protein labeling kit; 60% LED power, 40% MST power
pKd: −log10 of the molar value.
Measurement name: pKd

> print(dat)
                                   compound  recorded.result
1  O=C(O)c1ccc(O)cc1 [4-hydroxybenzoic acid]             4.64
